- System: LMP1 expression in Kem I cells
- Measurement Description: microbe, parasite or virus in culture
- Format: cell-based, EBV
- Condition Notes: human gammaherpesvirus 4, 48 h, read-out: Replicate 1-LMP1 Fold Increase, Kem I cells, 2.5 uM, 48 hours, fold change in LMP1 transcript vs vehicle
Structures can show the parent of a compound that is named as a salt.
Let's look at some compounds and their measured fold induction at 2.5 µM.
Measure: fold induction at 2.5 µM

INSERT INTO assay_data (compound, measure, assay_result) VALUES
  ('CCn1c(=O)c2c(nc(/C=C/c3ccc(OC)c(OC)c3)n2C)n(CC)c1=O', 'fold induction at 2.5 µM', 0.35),
  ('Cn1c(N2CCCCS2(=O)=O)nc(C(=O)NCc2ccc(F)cc2)c(O)c1=O', 'fold induction at 2.5 µM', 18.2),
  ('O=c1cc(-c2ccc(O)cc2)oc2cc(O)cc(O)c12', 'fold induction at 2.5 µM', 0.69),
  ('CCOC(=O)N1CCC(=C2c3ccc(Cl)cc3CCc3cccnc32)CC1', 'fold induction at 2.5 µM', 0.24),
  ('CCOC(=O)C1=C(COCCN)NC(C)=C(C(=O)OC)C1c1ccccc1Cl (stereo not drawn)', 'fold induction at 2.5 µM', 0.51),
  ('CCN[C@H]1CN(CCCOC)S(=O)(=O)c2sc(S(N)(=O)=O)cc21 [Brinzolamide]', 'fold induction at 2.5 µM', 0.23),
  ('CCN1CCC[C@H]1CNC(=O)c1cc(S(N)(=O)=O)ccc1OC [Levosulpiride]', 'fold induction at 2.5 µM', 0.7),
  ('Cc1cc(C(C)(C)C)c(O)c(C)c1CC1=NCCN1 [Oxymetazoline HCl]', 'fold induction at 2.5 µM', 0.6),
  ('COc1cc2c(cc1OC)[C@@H]1Cc3ccc(OC)c(OC)c3CN1CC2', 'fold induction at 2.5 µM', 0.3);

====

- Test system: LMP1 expression in Kem I cells
- Measurement Description: microbe, parasite or virus in culture
- Format: cell-based, EBV
- Condition Notes: human gammaherpesvirus 4, 48 h, read-out: Average LMP1 Fold Increase, Kem I cells, dose 2.5 uM, 48 hours, LMP1 transcript by in-well qRT-PCR, average of the two replicates
Structures can show the parent of a compound that is named as a salt.
Measure: fold induction at 2.5 µM

INSERT INTO results (molecule, measure, assay_result) VALUES
  ('CCOC(=O)N1c2ccc(C(F)(F)F)cc2[C@@H](N(Cc2cc(C(F)(F)F)cc(C(F)(F)F)c2)C(=O)OC)C[C@H]1CC', 'fold induction at 2.5 µM', 0.5),
  ('O=c1oc2cc(O)ccc2s1', 'fold induction at 2.5 µM', 0.55),
  ('Clc1ccccc1CN1CCc2sccc2C1 [Ticlopidine HCl]', 'fold induction at 2.5 µM', 1.15),
  ('CCO[C@@H]1OC(=O)C[C@@H]1NC(=O)[C@@H]1CCCN1C(=O)[C@@H](NC(=O)c1ccc(N)c(Cl)c1)C(C)(C)C', 'fold induction at 2.5 µM', 0.41),
  ('NC(=O)c1cccc(-c2cccc(OC(=O)NC3CCCCC3)c2)c1', 'fold induction at 2.5 µM', 0.54),
  ('O=c1ncn2nc(Sc3ccc(F)cc3F)ccc2c1-c1c(Cl)cccc1Cl', 'fold induction at 2.5 µM', 0.49),
  ('CNCc1ccc(-c2cc(-c3nc(-c4ccc(S(=O)(=O)C(C)C)cc4)cnc3N)on2)cc1', 'fold induction at 2.5 µM', 4.03),
  ('CS(=O)(=O)c1ccc(-c2cnc(N)c(C(=O)Nc3ccccc3)n2)cc1', 'fold induction at 2.5 µM', 0.17),
  ('c1ccc(CC2=NCCN2)cc1 [Tolazoline HCl]', 'fold induction at 2.5 µM', 0.26),
  ('Cc1c(Cl)cccc1Nc1ccccc1C(=O)O', 'fold induction at 2.5 µM', 0.15),
  ('Cn1c(=O)cc(N2CCC[C@@H](N)C2)n(Cc2cc(F)ccc2C#N)c1=O', 'fold induction at 2.5 µM', 0.63),
  ('Cc1ccccc1C(=O)Nc1ccc(C(=O)N2CCCC(O)c3cc(Cl)ccc32)c(C)c1 (stereo not drawn)', 'fold induction at 2.5 µM', 4.67),
  ('CC(C)OC(=O)OCOP(=O)(CO[C@H](C)Cn1cnc2c(N)ncnc21)OCOC(=O)OC(C)C [Tenofovir Disoproxil Fumarate]', 'fold induction at 2.5 µM', 0.56),
  ('CCCSc1nc(N[C@@H]2C[C@H]2c2ccc(F)c(F)c2)c2nnn([C@@H]3C[C@H](OCCO)[C@@H](O)[C@H]3O)c2n1', 'fold induction at 2.5 µM', 0.66),
  ('CN(C)CCOc1ccc(/C(=C(/CCCl)c2ccccc2)c2ccccc2)cc1 [Toremifene Citrate]', 'fold induction at 2.5 µM', 0.54),
  ('Nc1nc(N)c2nc(-c3ccccc3)c(N)nc2n1', 'fold induction at 2.5 µM', 0.91),
  ('C[C@@H](c1ncncc1F)[C@](O)(Cn1cncn1)c1ccc(F)cc1F', 'fold induction at 2.5 µM', 1.48),
  ('COc1cc2c(cc1OC)CN(CCc1ccc(NC(=O)c3cc(OC)c(OC)cc3NC(=O)c3cnc4ccccc4c3)cc1)CC2', 'fold induction at 2.5 µM', 0.71),
  ('CCC(COC(=O)c1cc(OC)c(OC)c(OC)c1)(c1ccccc1)N(C)C (stereo not drawn)', 'fold induction at 2.5 µM', 1.37),
  ('CN1CC(=O)N2[C@H](c3ccc4c(c3)OCO4)c3[nH]c4ccccc4c3C[C@@H]2C1=O', 'fold induction at 2.5 µM', 3.06),
  ('O=c1ncccn1[C@@H]1O[C@H](CO)[C@@H](O)[C@H]1O', 'fold induction at 2.5 µM', 0.52),
  ('Oc1nc(-c2ccc(C(F)(F)F)cc2)nc2c1CSCC2', 'fold induction at 2.5 µM', 0.73),
  ('CCCc1nc2c(C)cc(-c3nc4ccccc4n3C)cc2n1Cc1ccc(-c2ccccc2C(=O)O)cc1', 'fold induction at 2.5 µM', 0.37),
  ('CC(C)OC(=O)C1=CN(C(=O)c2ccc(F)c(F)c2)CC(C)(C)c2c1[nH]c1ccccc21', 'fold induction at 2.5 µM', 0.27),
  ('O=C(O[C@H]1C[C@H]2CC[C@@H](C1)[N+]21CCCC1)C(O)(c1ccccc1)c1ccccc1 [Trospium chloride]', 'fold induction at 2.5 µM', 0.35),
  ('O=S(=O)(c1ccccc1)N(CC(F)(F)F)c1ccc(C(O)(C(F)(F)F)C(F)(F)F)cc1', 'fold induction at 2.5 µM', 0.44),
  ('Cc1cc(OCCCS(C)(=O)=O)cc(C)c1-c1cccc(COc2ccc3c(c2)OC[C@H]3CC(=O)O)c1', 'fold induction at 2.5 µM', 0.57);
